Reference for the values: patent EP4721737A1

testDetails: pharmacokinetic properties test in dogs
Format: in vivo
conditionsUsed: dog; Beagle, 5 mg/kg oral gavage, single, fasted, plasma
reportedProperty: Tmax (h)

{"compound": "O=C([C@H](CO)c1ccc(F)cc1F)N1CC(=C2CN(S(=O)(=O)c3ccccn3)C2)C1 [Compound 83]", "reportedProperty": "Tmax", "readoutNumber": 0.67}
{"compound": "N#Cc1ccc(S(=O)(=O)N2CC(=C3CN(C(=O)[C@H](CO)c4ccccc4)C3)C2)cc1 [Compound 65]", "reportedProperty": "Tmax", "readoutNumber": 1.33}

###

# AC50 listing for each entry below
testTarget: PKR in ex vivo red blood cells from healthy individuals (Homo sapiens)
Construct: endogenous in cells; host or cells: human red blood cells isolated from fresh peripheral blood of healthy individuals
testDetails: ex vivo pyruvate kinase (PKR) activity experiment, red blood cells of healthy individuals
Assay type: cell-based
conditionsUsed: 3 hours co-cultivation

{"molecule": "O=C(N1CC(=C2CN(S(=O)(=O)c3ccccn3)C2)C1)C1(c2ccccc2)CCOCC1", "testTarget": "PKR in ex vivo red blood cells from healthy individuals (Homo sapiens)", "AC50": "101 to 300 nM"}
{"molecule": "O=C(C(CO)c1ccc(C(F)(F)F)cc1)N1CC(=C2CN(S(=O)(=O)c3ccccn3)C2)C1 (stereo not shown)", "testTarget": "PKR in ex vivo red blood cells from healthy individuals (Homo sapiens)", "AC50": "300 to 1000 nM"}
{"molecule": "CCOc1ccc(S(=O)(=O)N2CC(=C3CN(C(=O)[C@H](CO)c4ccccc4)C3)C2)nc1", "testTarget": "PKR in ex vivo red blood cells from healthy individuals (Homo sapiens)", "AC50": "< 100 nM"}
{"molecule": "O=C([C@H](CO)c1ccccc1)N1CC(=C2CN(S(=O)(=O)c3ccc(OC4CC4)cn3)C2)C1", "testTarget": "PKR in ex vivo red blood cells from healthy individuals (Homo sapiens)", "AC50": "101 to 300 nM"}

###

testDetails: pharmacokinetic properties test in mice
Type: in vivo
conditionsUsed: ICR mouse, 1 mg/kg intravenous injection, single, plasma

{"compound": "O=C([C@H](CO)c1ccc(F)cc1F)N1CC(=C2CN(S(=O)(=O)c3ccccn3)C2)C1 [Compound 83]", "AUC(0-t), ng·h/mL": 260}
{"compound": "N#Cc1ccc(S(=O)(=O)N2CC(=C3CN(C(=O)[C@H](CO)c4ccccc4)C3)C2)cc1 [Compound 65]", "AUC(0-t), ng·h/mL": 679}

###

testDetails: pharmacokinetic properties test in dogs
Type: in vivo
conditionsUsed: dog; Beagle, 2 mg/kg intravenous injection, single, plasma
Description: The pharmacokinetic properties of the compounds of the present disclosure in different animal species were investigated by measuring plasma drug concentrations following intravenous and oral gavage in mouse, rat, and dog. i. The compounds were weighed, then the solvent (5% DMSO + 10% Solutol + 85% saline) was added to prepare the administration solution. ii. […] Pharmacokinetic parameters were calculated using Phoenix WinNonlin 7.0 using plasma drug concentration data at different time points.

{"compound": "O=C([C@H](CO)c1ccc(F)cc1F)N1CC(=C2CN(S(=O)(=O)c3ccccn3)C2)C1 [Compound 83]", "half-life": "3.72 h"}
{"compound": "N#Cc1ccc(S(=O)(=O)N2CC(=C3CN(C(=O)[C@H](CO)c4ccccc4)C3)C2)cc1 [Compound 65]", "half-life": "5.81 h"}

###

testDetails: pharmacokinetic properties test in dogs
Type: in vivo
conditionsUsed: dog; Beagle, 2 mg/kg intravenous injection, single, plasma
reportedProperty: Cmax (ng/mL)

{"querySmiles": "N#Cc1ccc(S(=O)(=O)N2CC(=C3CN(C(=O)[C@H](CO)c4ccccc4)C3)C2)cc1", "readoutUnit": "ng/mL", "readoutNumber": 1770}
{"querySmiles": "O=C([C@H](CO)c1ccc(F)cc1F)N1CC(=C2CN(S(=O)(=O)c3ccccn3)C2)C1", "readoutUnit": "ng/mL", "readoutNumber": 1590}

###

testDetails: pharmacokinetic properties test in rats
Assay type: in vivo
conditionsUsed: SD rat, 10 mg/kg oral gavage, single, fasted, plasma
# AUC(0-t) listing for each entry below

{"compound": "O=C([C@H](CO)c1ccc(F)cc1F)N1CC(=C2CN(S(=O)(=O)c3ccccn3)C2)C1 [Compound 83]", "AUC(0-t) (ng·h/mL)": 3300}
{"compound": "N#Cc1ccc(S(=O)(=O)N2CC(=C3CN(C(=O)[C@H](CO)c4ccccc4)C3)C2)cc1 [Compound 65]", "AUC(0-t) (ng·h/mL)": 1730}

###

testDetails: pharmacokinetic properties test in rats
Type: in vivo
conditionsUsed: SD rat, 1 mg/kg intravenous injection, single, plasma

{"querySmiles": "N#Cc1ccc(S(=O)(=O)N2CC(=C3CN(C(=O)[C@H](CO)c4ccccc4)C3)C2)cc1", "readoutUnit": "h", "half-life": 0.64}
{"querySmiles": "O=C([C@H](CO)c1ccc(F)cc1F)N1CC(=C2CN(S(=O)(=O)c3ccccn3)C2)C1", "readoutUnit": "h", "half-life": 4.91}

###

# AC50 listing for each entry below
testTarget: PKR in ex vivo red blood cells from healthy individuals (Homo sapiens, UniProt P30613)
Construct: endogenous in cells; host or cells: human red blood cells isolated from fresh peripheral blood of healthy individuals
Sequence (P30613 whole entry): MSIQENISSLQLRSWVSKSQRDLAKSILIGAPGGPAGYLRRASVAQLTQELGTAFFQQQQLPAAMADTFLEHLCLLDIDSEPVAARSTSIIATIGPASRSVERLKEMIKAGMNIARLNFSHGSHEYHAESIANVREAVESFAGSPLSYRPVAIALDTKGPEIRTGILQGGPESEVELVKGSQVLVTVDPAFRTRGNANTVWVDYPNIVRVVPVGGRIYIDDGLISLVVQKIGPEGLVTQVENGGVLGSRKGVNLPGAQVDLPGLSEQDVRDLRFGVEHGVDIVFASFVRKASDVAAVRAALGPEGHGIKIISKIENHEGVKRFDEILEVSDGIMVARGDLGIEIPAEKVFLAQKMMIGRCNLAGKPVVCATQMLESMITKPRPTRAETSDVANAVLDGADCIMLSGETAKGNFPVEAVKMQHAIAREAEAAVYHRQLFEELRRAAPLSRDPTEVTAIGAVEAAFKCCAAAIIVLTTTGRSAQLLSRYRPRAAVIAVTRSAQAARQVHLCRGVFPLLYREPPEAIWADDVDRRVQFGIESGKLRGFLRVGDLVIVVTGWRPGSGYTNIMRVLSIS
testDetails: ex vivo pyruvate kinase (PKR) activity experiment, red blood cells of healthy individuals
Assay type: cell-based
conditionsUsed: 3 hours co-cultivation
reportedProperty: AC50

{"molecule": "CC(C)(O)C(C(=O)N1CC(=C2CN(S(=O)(=O)c3ccccn3)C2)C1)c1ccccc1 (stereo not drawn) [Compound 62]", "testTarget": "PKR in ex vivo red blood cells from healthy individuals (Homo sapiens, UniProt P30613)", "reportedProperty": "AC50", "result": "300 to 1000 nM"}
{"molecule": "O=C1COc2ccc(S(=O)(=O)N3CC(=C4CN(C(=O)[C@H](CO)c5ccccc5)C4)C3)cc2N1 [Compound 40]", "testTarget": "PKR in ex vivo red blood cells from healthy individuals (Homo sapiens, UniProt P30613)", "reportedProperty": "AC50", "result": "300 to 1000 nM"}
{"molecule": "[2H]C([2H])([2H])Oc1ccc(S(=O)(=O)N2CC(=C3CN(C(=O)[C@H](CO)c4ccccc4)C3)C2)nc1 [Compound 91]", "testTarget": "PKR in ex vivo red blood cells from healthy individuals (Homo sapiens, UniProt P30613)", "reportedProperty": "AC50", "result": "< 100 nM"}
{"molecule": "O=C([C@H](CO)c1ccccc1)N1CC(=C2CN(S(=O)(=O)c3ccc(OC(F)(F)F)cc3)C2)C1 [Compound 9]", "testTarget": "PKR in ex vivo red blood cells from healthy individuals (Homo sapiens, UniProt P30613)", "reportedProperty": "AC50", "result": "< 100 nM"}
{"molecule": "O=C(c1c[nH]c2ccccc12)N1CC(=C2CN(S(=O)(=O)c3ccc4ncsc4c3)C2)C1 [Compound 52]", "testTarget": "PKR in ex vivo red blood cells from healthy individuals (Homo sapiens, UniProt P30613)", "reportedProperty": "AC50", "result": "300 to 1000 nM"}
{"molecule": "CN1C(=O)COc2ccc(S(=O)(=O)N3CC(=C4CN(C(=O)[C@H](CO)c5ccccc5)C4)C3)cc21 [Compound 41]", "testTarget": "PKR in ex vivo red blood cells from healthy individuals (Homo sapiens, UniProt P30613)", "reportedProperty": "AC50", "result": "< 100 nM"}
{"molecule": "N#Cc1ccc(S(=O)(=O)N2CC(=C3CN(C(=O)[C@H](CO)c4ccccc4)C3)C2)cc1 [Compound 65]", "testTarget": "PKR in ex vivo red blood cells from healthy individuals (Homo sapiens, UniProt P30613)", "reportedProperty": "AC50", "result": "< 100 nM"}
{"molecule": "O=C(c1c[nH]c2ccccc12)N1CC(=C2CN(S(=O)(=O)c3ccccn3)C2)C1 [Compound 56]", "testTarget": "PKR in ex vivo red blood cells from healthy individuals (Homo sapiens, UniProt P30613)", "reportedProperty": "AC50", "result": "300 to 1000 nM"}
{"molecule": "CN1CCOc2ccc(S(=O)(=O)N3CC(=C4CN(C(=O)[C@H](CO)c5ccccc5)C4)C3)cc21 [Compound 39]", "testTarget": "PKR in ex vivo red blood cells from healthy individuals (Homo sapiens, UniProt P30613)", "reportedProperty": "AC50", "result": "< 100 nM"}
{"molecule": "O=C([C@H](CO)c1ccccc1)N1CC(=C2CN(S(=O)(=O)c3ccc(Cl)cn3)C2)C1 [Compound 66]", "testTarget": "PKR in ex vivo red blood cells from healthy individuals (Homo sapiens, UniProt P30613)", "reportedProperty": "AC50", "result": "< 100 nM"}
{"molecule": "COc1ccc(S(=O)(=O)N2CC(=C3CN(C(=O)[C@H](CO)c4ccccc4)C3)C2)nc1 [Compound 67]", "testTarget": "PKR in ex vivo red blood cells from healthy individuals (Homo sapiens, UniProt P30613)", "reportedProperty": "AC50", "result": "< 100 nM"}
{"molecule": "O=C([C@H](CO)c1ccc(F)cc1)N1CC(=C2CN(S(=O)(=O)c3ccc4ncsc4c3)C2)C1 [Compound 25]", "testTarget": "PKR in ex vivo red blood cells from healthy individuals (Homo sapiens, UniProt P30613)", "reportedProperty": "AC50", "result": "300 to 1000 nM"}
{"molecule": "NC(C(=O)N1CC(=C2CN(S(=O)(=O)c3ccc(OC(F)F)cc3)C2)C1)c1ccccc1 (stereo not drawn) [Compound 21]", "testTarget": "PKR in ex vivo red blood cells from healthy individuals (Homo sapiens, UniProt P30613)", "reportedProperty": "AC50", "result": "< 100 nM"}
{"molecule": "O=C([C@H](CO)c1ccccc1)N1CC(=C2CN(S(=O)(=O)c3ccc(OC(F)F)cn3)C2)C1 [Compound 80]", "testTarget": "PKR in ex vivo red blood cells from healthy individuals (Homo sapiens, UniProt P30613)", "reportedProperty": "AC50", "result": "< 100 nM"}
{"molecule": "O=C([C@H](CO)c1ccccc1)N1CC(=C2CN(S(=O)(=O)c3ccc4ncsc4c3)C2)C1 [Compound 3]", "testTarget": "PKR in ex vivo red blood cells from healthy individuals (Homo sapiens, UniProt P30613)", "reportedProperty": "AC50", "result": "101 to 300 nM"}
{"molecule": "O=C(C(CO)c1ccc(F)cc1)N1CC(=C2CN(S(=O)(=O)c3ccc4c(c3)OCCO4)C2)C1 (stereo not drawn) [Compound 18]", "testTarget": "PKR in ex vivo red blood cells from healthy individuals (Homo sapiens, UniProt P30613)", "reportedProperty": "AC50", "result": "< 100 nM"}
{"molecule": "O=C(N1CC(=C2CN(S(=O)(=O)c3ccc(OC(F)F)cc3)C2)C1)C1(c2ccccc2)CCOCC1 [Compound 14]", "testTarget": "PKR in ex vivo red blood cells from healthy individuals (Homo sapiens, UniProt P30613)", "reportedProperty": "AC50", "result": "101 to 300 nM"}
{"molecule": "CC(C)Oc1ccc(S(=O)(=O)N2CC(=C3CN(C(=O)[C@H](CO)c4ccccc4)C3)C2)nc1 [Compound 81]", "testTarget": "PKR in ex vivo red blood cells from healthy individuals (Homo sapiens, UniProt P30613)", "reportedProperty": "AC50", "result": "300 to 1000 nM"}
{"molecule": "O=C(C(CO)c1cccnc1)N1CC(=C2CN(S(=O)(=O)c3ccccn3)C2)C1 (stereo not drawn) [Compound 60]", "testTarget": "PKR in ex vivo red blood cells from healthy individuals (Homo sapiens, UniProt P30613)", "reportedProperty": "AC50", "result": "300 to 1000 nM"}
{"molecule": "O=C(C(CO)c1ccc(F)cc1F)N1CC(=C2CN(S(=O)(=O)c3ccccn3)C2)C1 (stereo not drawn) [Compound 74]", "testTarget": "PKR in ex vivo red blood cells from healthy individuals (Homo sapiens, UniProt P30613)", "reportedProperty": "AC50", "result": "< 100 nM"}
{"molecule": "O=C([C@H](CO)c1ccccc1)N1CC(=C2CN(S(=O)(=O)c3ccc(OC(F)F)c(F)c3)C2)C1 [Compound 11]", "testTarget": "PKR in ex vivo red blood cells from healthy individuals (Homo sapiens, UniProt P30613)", "reportedProperty": "AC50", "result": "< 100 nM"}
{"molecule": "O=C(C(CO)c1ccc(F)c(F)c1)N1CC(=C2CN(S(=O)(=O)c3ccccn3)C2)C1 (stereo not drawn) [Compound 61]", "testTarget": "PKR in ex vivo red blood cells from healthy individuals (Homo sapiens, UniProt P30613)", "reportedProperty": "AC50", "result": "101 to 300 nM"}
{"molecule": "COc1ccc(C(CO)C(=O)N2CC(=C3CN(S(=O)(=O)c4ccccn4)C3)C2)cc1 (stereo not drawn) [Compound 53]", "testTarget": "PKR in ex vivo red blood cells from healthy individuals (Homo sapiens, UniProt P30613)", "reportedProperty": "AC50", "result": "101 to 300 nM"}
{"molecule": "O=C(C(CO)C1CCCCC1)N1CC(=C2CN(S(=O)(=O)c3ccccn3)C2)C1 (stereo not drawn) [Compound 90]", "testTarget": "PKR in ex vivo red blood cells from healthy individuals (Homo sapiens, UniProt P30613)", "reportedProperty": "AC50", "result": "300 to 1000 nM"}
